Test: Selectivity ratio of Ki for human histamine H4 receptor to Ki for adrenergic alpha1 receptor
Given measured Ratio Ki, output condition met if it is greater than or equal to 200 and condition not met if not.

Observe how each entry below is paired with its result.
CN1CCN(c2cc(-c3ccc(C#N)cc3)nc(N)n2)CC1    condition met
Nc1nc2c(c(N3CCNCC3)n1)CCCc1ccc(F)cc1-2    condition met
Nc1nc2c(c(N3CCNCC3)n1)CCCCC2c1ccccc1 (stereo unspecified)    condition not met
CNC1CN(c2nc(N)nc3c2CCCc2ccccc2-3)C1    condition met
CN[C@@H]1CCN(c2nc(N)nc3c2CCCc2ccccc2-3)C1    condition not met

For the next question, use this molecule.
Task item: Determine whether this molecule has Ratio Ki no lower than 200: `Nc1nc2c(c(N3CCNCC3)n1)CCCc1ccccc1-2`
Reply: condition not met
